target: VPS29 (recombinant) (human, UniProt Q9UBQ0 1-182); assay: ITC; VPS35L peptides at 600 μM titrated into 20 μM VPS29, 100 mM Tris pH 7.4, 300 mM NaCl, 25°C, single site model; conditions: both partners purified
Recorded Metric: pKd
Hey, just a heads up that pKd is the negative log base 10 of the concentration in molar.

## Task Look up pKd: EFASCRLEAVPLEFGDYHPLKPI (VPS35L, human, residues 16-38; also called VPS35L peptide (Glu16-Ile38); source: synthetic peptide (Genscript)) [VPS35L (16-38) peptide]
## Result 5.73
